Each recorded value in this set is attributed to ChEMBL document CHEMBL1201862.

System: HOP-62
procedure details: NCI tumour cell line growth inhibition, 48 h
Activity calls are given as the source filed them. Cut-off read from the data, not from the text of the source: active = GI50 up to about 1.1 µM and inactive = higher. Peptide text beside a SMILES is read from it. * marks the point of attachment. Cbz = O=C(OCc1ccccc1)*; OBn = c1ccc(CO*)cc1
metric: GI50

>>> result("CCOC(=O)C(=O)/C(=C\\NC(=S)Nc1ccccc1Cl)C(=O)OCC")
"> 100 µM (inactive)"
>>> result("COc1cc(/C=C2\\N=C(c3ccccc3)N(c3nc4cc(C)c(C)cc4s3)C2=O)cc(OC)c1OC")
"19.9 µM (inactive)"
>>> result("O=C(O)CSC1=NC(=O)C2(NN1)c1ccccc1-c1ccccc12")
"> 10 µM (inactive)"
>>> result("COC(=O)CNC(=O)C(C)NC(=O)C(CC(=O)OCc1ccccc1)NC(=O)OCc1ccccc1 (stereo not drawn) (Cbz-Asp(OBn)-Ala-Gly-OMe; configuration not given here)")
"> 100 µM (inactive)"
>>> result("C/C=C/C1(C)/C(=N\\O)C(C)(CCC)C(=O)N1O (configuration not stated)")
"> 100 µM (inactive)"
>>> result("O=C1Cc2ccccc2CCc2ccccc21")
"> 100 µM (inactive)"
>>> result("C[N+](C)(C)/C=N\\c1cccc2nsnc12")
"> 100 µM (inactive)"
>>> result("Brc1ccccc1/C=C\\C1(c2ccccc2)OCCO1")
"14.5 µM (inactive)"
>>> result("N#C/C(=C\\c1ccccc1)C(NO)Nc1ccccc1 (configuration not stated)")
"> 100 µM (inactive)"
>>> result("CN1C(=O)NC(=O)/C(=C\\Nc2ncccn2)C1=O")
"> 100 µM (inactive)"
>>> result("CC1(C)N/C(=C\\C=O)C(C)(C)N1O")
"> 100 µM (inactive)"
>>> result("C(=N\\Cc1ccccc1)/c1ccccc1-c1ccccc1/C=N/Cc1ccccc1")
"> 10 µM (inactive)"
>>> result("Cc1nc(-c2ccc([N+](=O)[O-])cc2)cn2c1nc1ccccc12")
"36.5 µM (inactive)"
>>> result("Cc1cc(C)nc(NS(=O)(=O)c2ccc(Nc3c4ccccc4nc4c(C(=O)Nc5ccc(S(=O)(=O)N=C(N)N)cc5)ccc(Cl)c34)cc2)n1")
"23.2 µM (inactive)"
>>> result("Cc1cccc(/N=N/c2c(C)nn(C(=O)CC(=O)Nc3ccc(Cl)cc3)c2C)c1")
"37.1 µM (inactive)"
>>> result("CCOC(=O)C1=C(O)C(=O)c2c(OC)ccc(OC)c2C1=O")
"> 100 µM (inactive)"
>>> result("Cc1nc(Cc2n[nH]c(C)n2)n[nH]1")
"> 100 µM (inactive)"
>>> result("COC(=O)/C=C1/CCC(C)(C(=O)NS(=O)(=O)c2ccc(C)cc2)C1(C)C (configuration not stated)")
"> 100 µM (inactive)"
>>> result("COc1cc(C(SCc2ccccc2)SCc2ccccc2)ccc1O")
"> 10 µM (inactive)"
>>> result("Cc1ccccc1C(=N)c1ccccc1Cc1cccc2ccccc12")
"19 µM (inactive)"
>>> result("CC1C2CC(C(S(=O)(=O)O)C2=O)C1(C)C (configuration not stated)")
"> 100 µM (inactive)"
>>> result("CCOC(=O)c1c(SC(=O)c2ccc(Cl)cc2)n(-c2ccccc2)c(=S)n(-c2ccccc2)c1=O")
"> 100 µM (inactive)"
